Dear all, I have gathered published pIC50 values for the protein given by its sequence; the list follows.
Sequence of the target: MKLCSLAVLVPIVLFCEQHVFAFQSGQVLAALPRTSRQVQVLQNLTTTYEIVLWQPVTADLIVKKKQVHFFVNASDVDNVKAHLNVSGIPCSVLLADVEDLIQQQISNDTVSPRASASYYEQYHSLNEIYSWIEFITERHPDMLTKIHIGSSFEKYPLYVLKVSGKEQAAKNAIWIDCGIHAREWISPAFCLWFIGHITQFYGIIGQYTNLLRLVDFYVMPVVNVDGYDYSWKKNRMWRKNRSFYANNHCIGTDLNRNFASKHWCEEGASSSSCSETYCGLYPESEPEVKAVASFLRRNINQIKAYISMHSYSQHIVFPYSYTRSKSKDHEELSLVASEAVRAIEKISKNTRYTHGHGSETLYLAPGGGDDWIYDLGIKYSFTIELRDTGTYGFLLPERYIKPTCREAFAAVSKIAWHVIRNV
Convention used: pIC50 is expressed as -log10 of the molar concentration.

The following compounds have reported results that may help.
- Cc1nc(N)ccc1CC(C(=O)O)c1c[nH]cn1 (stereo unspecified): 5.24
- NCCCC[C@H](NC(=O)N[C@H](CC1CCCCC1)C(=O)NCC(c1ccccc1)c1ccccc1)C(=O)O: 6.92
- CC(C)(CN)CCC(C(=O)O)c1c[nH]cn1 (stereo unspecified): 6.42

Name the reported pIC50 value associated with the compound CC(C)(C)CCn1cnc(C(C[C@H]2CC[C@H](N)C2)C(=O)O)c1 (stereo partly specified)
9.00

Name the reported pIC50 value associated with the compound CC(C)(C)NC(=O)[C@H](CC1CCCCC1)NS(=O)(=O)N[C@@H](CCCCN)C(=O)O
5.17

====

Dear all, I have gathered published IC50 values for the protein given by its sequence; the list follows.
Target protein (sequence): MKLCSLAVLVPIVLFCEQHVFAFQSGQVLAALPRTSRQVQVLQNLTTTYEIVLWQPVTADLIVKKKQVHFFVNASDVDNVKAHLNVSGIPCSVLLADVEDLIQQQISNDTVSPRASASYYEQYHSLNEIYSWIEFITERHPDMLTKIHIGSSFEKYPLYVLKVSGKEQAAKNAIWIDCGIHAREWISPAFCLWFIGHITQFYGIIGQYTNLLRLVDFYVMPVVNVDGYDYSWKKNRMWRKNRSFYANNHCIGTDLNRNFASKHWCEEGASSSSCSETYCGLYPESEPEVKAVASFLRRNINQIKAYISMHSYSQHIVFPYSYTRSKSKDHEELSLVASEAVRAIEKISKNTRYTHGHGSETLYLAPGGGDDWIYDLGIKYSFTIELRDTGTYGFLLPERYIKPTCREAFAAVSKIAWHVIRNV
Give just the number in µM; leave the unit off.

• Nc1ncc(CC(C(=O)O)c2c[nH]cn2)cc1F (configuration not stated) = 6.7

Any idea what IC50 came out for NCCCC[C@H](NS(N)(=O)=O)C(=O)O on the protein given by its sequence?
15

Any idea what IC50 came out for NC1CCC(CC(C(=O)O)c2cnc[nH]2)CC1 (configuration not stated) on the protein given by its sequence?
7

Any idea what IC50 came out for CC12CCC(C(NC(=O)[C@@H](CC3CCCCC3)NC(=O)N[C@H](C#N)Cc3ccc(N)nc3)C1)C2(C)C (some centres not stated) on the protein given by its sequence?
54

Any idea what IC50 came out for Nc1ncc(CC(C(=O)O)c2cnc[nH]2)cc1Cl (configuration not stated) on the protein given by its sequence?
5.3

Any idea what IC50 came out for CCC[C@@H](NC(=O)N[C@@H](CCCCN)C(=O)O)C(=O)NC1CC2(C)CCC1C2(C)C (some centres not stated) on the protein given by its sequence?
0.015
